B1: WSB1 (parent)
chain: FSHDGLHVASLADDKMVRFWRIDE

Variants of: B1
Experiment: protein stability index of a GFP-peptide fusion (GPS, HEK-293T) (PSI 1-6); higher = more stable;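 also: lentivirally expressed fusions sorted by FACS into six bins by GFP to DsRed ratio, PSI derived from sequencing read proportions per bin multiplied by bin number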
Details: c terminus: a fixed tail appended
RECORDED ENDPOINT: protein stability index

What measured protein stability index goes with L11P ? 1.47

Name the reported protein stability index value associated with the variant A9M 1.79

Any idea what protein stability index was measured for F19I ? 1.49

Consider the variant shown here: S2G What is its recorded protein stability index? 1.15

Entry under review: E24S . Reported protein stability index? 1.61

What does the data say about its protein stability index? Entry: W20G 2.79

Need protein stability index of V17K , thanks. 1.85

What measured protein stability index goes with K15W ? 1.67

Recorded protein stability index of F19N , please. 2.62

Can you look up the measured protein stability index of E24F for me? 2.68

Need protein stability index of F19H , thanks. 2.66

Consider the variant shown here: W20C What is its recorded protein stability index? 2.42

Quick check: protein stability index of V8W ? 2.92

Quick check: protein stability index of D23R ? 1.45

Please give the measured protein stability index for this variant: G5A 1.92

Quick one: protein stability index for F1Y ? 2.49

Param item = A9Q ; retrieve measured protein stability index. 1.89

Consider the variant S10D and give its measured protein stability index. 2.03

Would you kindly share the measured protein stability index for L6Q ? 2.33

What does the record list as protein stability index for D4T ? 2.1

Name the reported protein stability index value associated with the variant R21Y 3.45

Dear colleague, I am looking for the recorded protein stability index of the following variant: H7R 3.03

# input variant: E24W ; wanted: its protein stability index 2.56

# input variant: R18I ; wanted: its protein stability index 2.23

For the variant S2L , what protein stability index is on record? 1.58

Would you mind telling me what protein stability index value was observed for D13I ? 1.21

Looking for the measured protein stability index of D13W , can you help? 2.68

Look at this variant and give its reported protein stability index. V17A 1.15

// protein stability index lookup, key: R18L 1.32

Sample R21P — what was its protein stability index? 2.35
